# TESTED SYSTEM: human ether-à-go-go-related gene (hERG) potassium channel (human);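 further: peak tail current of the secondary pulse compared with the same well before compound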
# Sequence (Q12809 whole entry, looked up): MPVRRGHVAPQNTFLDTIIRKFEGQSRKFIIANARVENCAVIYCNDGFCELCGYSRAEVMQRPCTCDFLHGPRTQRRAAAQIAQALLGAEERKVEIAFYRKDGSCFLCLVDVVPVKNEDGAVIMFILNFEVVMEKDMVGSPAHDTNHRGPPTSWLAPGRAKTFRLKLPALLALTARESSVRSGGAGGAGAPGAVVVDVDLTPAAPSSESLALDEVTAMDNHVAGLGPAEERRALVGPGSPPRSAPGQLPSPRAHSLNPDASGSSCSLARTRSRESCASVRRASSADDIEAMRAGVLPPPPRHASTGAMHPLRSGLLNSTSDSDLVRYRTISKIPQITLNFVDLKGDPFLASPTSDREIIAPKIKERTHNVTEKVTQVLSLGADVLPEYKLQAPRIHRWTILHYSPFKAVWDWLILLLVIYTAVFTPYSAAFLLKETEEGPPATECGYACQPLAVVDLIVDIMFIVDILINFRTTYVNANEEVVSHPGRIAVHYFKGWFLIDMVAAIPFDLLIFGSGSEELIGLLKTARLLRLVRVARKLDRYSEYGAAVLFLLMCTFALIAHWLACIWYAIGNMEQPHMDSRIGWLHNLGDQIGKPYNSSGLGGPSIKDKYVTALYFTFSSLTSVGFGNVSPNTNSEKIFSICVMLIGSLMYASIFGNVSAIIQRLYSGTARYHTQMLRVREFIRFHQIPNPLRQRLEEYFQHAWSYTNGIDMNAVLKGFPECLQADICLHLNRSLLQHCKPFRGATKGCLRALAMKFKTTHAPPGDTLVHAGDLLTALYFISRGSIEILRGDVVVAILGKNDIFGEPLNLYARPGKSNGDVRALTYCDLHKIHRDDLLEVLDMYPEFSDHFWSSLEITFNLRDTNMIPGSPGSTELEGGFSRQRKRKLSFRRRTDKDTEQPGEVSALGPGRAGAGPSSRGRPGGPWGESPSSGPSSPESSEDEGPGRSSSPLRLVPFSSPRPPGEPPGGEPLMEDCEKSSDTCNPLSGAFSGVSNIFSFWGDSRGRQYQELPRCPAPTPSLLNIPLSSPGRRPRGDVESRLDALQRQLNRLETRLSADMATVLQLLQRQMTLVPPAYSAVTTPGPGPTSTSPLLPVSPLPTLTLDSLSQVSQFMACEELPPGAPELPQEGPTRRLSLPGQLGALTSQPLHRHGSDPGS
# PROCEDURE DETAILS: primary screen, population patch clamp on CHO cells stably expressing hERG; higher = less effect of the substance
In all, about 310,000 compounds went through this assay and about 14,000 (4.5%) showed an effect of 50% or more. The effect is printed as a negative number. This is one part of a sample in which strong results are shown more often than they occur.
# if value of hERG current change (%, negative = inhibition) at 10uM reaches -30%, tag T; if it stays below, tag F

Record excerpt, results attached:
In [3]: df
Out[3]:
                                   compound  classification
0  COc1ccc(S(=O)(=O)NCC2CCCN(Cc3ccc(C)o3)C2)cc1 (stereo not drawn)               T
1             CCOC(=O)CN(C#N)c1nc(C)cc(C)n1               T
2  CCc1ccc(CN2CCCC(CNS(=O)(=O)c3ccc(OC)cc3)C2)cc1 (stereo not drawn)               F

**Q:** Could you verify whether the entry Cc1ccc(NC2=NC(=S)N(CC#N)C23CCCCC3)cc1 shows hERG current change (%, negative = inhibition) at 10uM of no less than -30%?
**A:** T

**Q:** Could you verify whether the entry O=C(COc1ccccc1)N1CCN(C/C=C/c2ccccc2)CC1 shows hERG current change (%, negative = inhibition) at 10uM of no less than -30%?
**A:** F

**Q:** Could you verify whether the entry COc1ccc(O)c(CN2CCN(C/C=C/c3ccccc3)CC2)c1 shows hERG current change (%, negative = inhibition) at 10uM of no less than -30%?
**A:** F

**Q:** Could you verify whether the entry COc1ccc(NC(=S)N2CCN(C/C=C/c3ccccc3)CC2)c(OC)c1 shows hERG current change (%, negative = inhibition) at 10uM of no less than -30%?
**A:** F
